Here, each record is paired with measured MIC data.
- System: Saccharomyces cerevisiae
- METHOD_DESCRIPTION: Antifungal activity against wild type Saccharomyces cerevisiae after 24 to 48 hrs by microdilution assay
- Assay type: functional
READOUT_NAME: MIC (µg/mL)

molecule=COc1ccc([C@H]2COc3c(ccc(O)c3O)C2)c2c1C=CC(C)(C)O2 system_under_test="Saccharomyces cerevisiae" readout_name=MIC numeric_value=30.5
molecule=COc1ccc2c(c1CC=C(C)C)O[C@@H]1c3ccc(O)cc3OC[C@H]21 system_under_test="Saccharomyces cerevisiae" readout_name=MIC numeric_value=30.5
molecule=C=CC(C)(C)c1cc([C@@H]2COc3c(ccc(O)c3O)C2)c(OC)cc1OC system_under_test="Saccharomyces cerevisiae" readout_name=MIC numeric_value=15.2
molecule="COc1ccc(C2COc3cc(O)cc(O)c3C2=O)c2c1C=CC(C)(C)O2 (racemic)" system_under_test="Saccharomyces cerevisiae" readout_name=MIC numeric_value=7.6
molecule=COc1ccc([C@H]2COc3c(ccc(O)c3O)C2)c(O)c1CC=C(C)C system_under_test="Saccharomyces cerevisiae" readout_name=MIC numeric_value=15.2
molecule="C=CC(C)(C)c1cc(C2COc3cc(O)c(CC=C(C)C)c(O)c3C2=O)c(O)cc1O (racemic)" system_under_test="Saccharomyces cerevisiae" readout_name=MIC numeric_value=15.2
molecule=C=CC(C)(C)c1cc([C@]2(O)COc3cc(O)c(CC=C(C)C)c(O)c3C2=O)c(O)cc1O system_under_test="Saccharomyces cerevisiae" readout_name=MIC numeric_value=61
